Values were extracted from PubChem BioAssay (NCI).

Tested on: COLO 205 colon
assay_details: NCI-60 one-dose screen, 48 h
stated_conditions: 10 µM unless noted
This is part of a sample that, as a whole, favours compounds with a hit. Of some 83,000 tested, about 20% had one in any assay. The source made the active and inactive calls. The calls were made as follows: active = growth percent below 10; inactive = the rest.
Answer with one of the outcomes active, inactive

// known answers, use as guide
INSERT INTO results (compound, label_class) VALUES
  ('O=C(Nc1ccc(F)c(Cl)c1)c1n[nH]c(=O)c2ccccc12', 'inactive'),
  ('COc1cccc(C2CC(=O)Nc3c2c(C)nn3-c2nc3ccccc3[nH]2)c1OC (stereo not given)', 'inactive'),
  ('O=S(=O)(NCCCNc1cc(-c2cn(-c3ccccc3)nc2-c2cccc(O)c2)ccn1)c1ccc(Br)cc1', 'active'),
  ('COc1ccc(C(=O)/C=C/c2cccc([N+](=O)[O-])c2)c(OC)c1', 'inactive'),
  ('Cn1cc(C=O)c2ccccc21', 'inactive'),
  ('COc1ccc(OC)c(/C=C2\Oc3cc(OCCN4CCCC4)ccc3C2=O)c1', 'inactive'),
  ('O=S(=O)(NCCCNc1cc(-c2cn(-c3ccccc3)nc2-c2cccc(O)c2)ccn1)c1cccc(F)c1', 'active'),
  ('COc1cc2c(cc1OC)C1(C)N(CC2)C(=O)OC1(C)C (stereo not given)', 'inactive'),
  ('Cn1c(C(N)=O)cc2c1-c1nc(NC3CCCCC3)ncc1CCC2', 'inactive');

Now turn to the next compound.
Prompt: Hi, do you know how Cc1cc(C)c2c(=O)[nH]c(SCC(=O)Nc3cccc(S(=O)(=O)N(C)C)c3)nc2n1 came out in this test?
Response: inactive

###

Tested on: IGROV1 ovarian
assay_details: NCI-60 one-dose screen, 48 h (100 = growth as untreated, 0 = no growth, -100 = all killed)
stated_conditions: 10 µM unless noted
Protocol: Growth inhibition of the IGROV1 human tumor cell line is measured as a screen for anti-cancer activity. Cells are grown in 96 well plates and exposed to the test compound for 48 hours. Compounds are tested at a single concentration, which is 10^-5 M for most compounds. The reported endpoint is percent growth (GI% or GIPRCNT), where numbers from 0 - 100% represent growth inhibition, and numbers from -100% - 0 represent cell death. For example, a value of 40 represents 60% growth inhibition. […]
This is part of a sample that, as a whole, favours compounds with a hit. Of some 83,000 tested, about 20% had one in any assay.
The following compounds are listed with their measured growth values.
Use % as the unit, but write only the number.

INSERT INTO assay_data (compound, endpoint, endpoint_unit, numeric_result) VALUES
  ('Cc1sc2nc(CSc3nnc(-c4ccco4)o3)[nH]c(=O)c2c1C', 'growth', '%', 109),
  ('COc1cc(NC(=O)CCl)ccc(=O)c1', 'growth', '%', 58.1),
  ('Cn1c(-c2nonc2NC(=O)c2ccc(F)cc2)nc2ccccc21', 'growth', '%', 104),
  ('Cc1cc(Nc2nc(C(=O)Nc3ccccc3)nc3ccccc23)n[nH]1', 'growth', '%', 39.6),
  ('COc1ccc(NC(=S)/N=c2\oc3c(OC)cccc3cc2-c2cc3ccccc3[nH]2)cc1', 'growth', '%', 63.1),
  ('CCCCCCCCCCCCCCCCCCOc1cccc(CCOP(=O)(O)OCC[N+](C)(C)C)c1', 'growth', '%', 39);

Lab book: growth of COC(=O)C(CC(=O)c1ccc(-c2ccccc2)cc1)c1ccccc1 (stereo not given) noted as 64.7

Lab book: growth of COc1ncc(-c2ccc3ncnc(Nc4cccc(Cl)c4)c3c2)cc1N(S(C)(=O)=O)S(C)(=O)=O noted as -28.6

Lab book: growth of Cc1cc(Nc2nc(-c3ccncc3)nc3ccccc23)n[nH]1 noted as 16.3

Lab book: growth of CCN(CC)S(=O)(=O)c1ccc2[nH]c(=O)cc(C(=O)Nc3ccc(OC)cc3OC)c2c1 noted as 34.4

###

Test system: SK-MEL-5 melanoma
assay_details: NCI-60 one-dose screen, 48 h
stated_conditions: 10 µM unless noted
About 83,000 compounds went through this panel and 20% of them were active in at least one assay; those are over-represented in the sample as a whole. Active and inactive are the calls of the source. How the source made its calls: active means growth percent below 10; inactive means the rest.
Answer with one of the outcomes 1.0 for active, 0.0 for inactive

// known answers, use as guide
INSERT INTO results (compound, study_system, label_class) VALUES
  ('O=C1NC(Cc2c[nH]c3ccccc23)C(=O)N1Cc1ccc(Cl)cc1 (configuration not stated)', 'SK-MEL-5 melanoma', 0.0),
  ('Cn1c(-c2nonc2NC(=O)c2ccc(F)cc2)nc2ccccc21', 'SK-MEL-5 melanoma', 0.0),
  ('CN(C)c1nc(N)c(N=O)c(N)n1', 'SK-MEL-5 melanoma', 0.0),
  ('Nc1cccc2c1CN(C1CCC(=O)NC1=O)C2=O (configuration not stated)', 'SK-MEL-5 melanoma', 0.0),
  ('c1cc(-c2ccc3c(c2)OCO3)n2nccc2n1', 'SK-MEL-5 melanoma', 0.0),
  ('COc1cc(C2CC(c3c(C)[n+]([O-])c4ccccc4[n+]3[O-])=NN2)cc(OC)c1OC (configuration not stated)', 'SK-MEL-5 melanoma', 0.0),
  ('CC(C)CCC[C@@H](C)[C@H]1CC[C@H]2[C@@H]3CC[C@H]4C/C(=N/O)CC[C@]4(C)[C@H]3CC[C@]12C', 'SK-MEL-5 melanoma', 0.0),
  ('COc1cc(CCn2nnc3c(NCCCCO)ncnc32)cc(OC)c1', 'SK-MEL-5 melanoma', 0.0);

Prompt: Hi, do you know how Clc1nc(-c2cccnc2)nc2sc3c(c12)CCCCCC3 came out in this test?
Response: 0.0

Prompt: Hi, do you know how O=C1CCC/C=C\C[C@H]2C=CC(=O)/C2=C/C[C@H](C/C=C\CC(F)(F)F)O1 came out in this test?
Response: 1.0

Prompt: Hi, do you know how Nc1c(C(=O)Nc2cccc(C(F)(F)F)c2)sc2nc3c(cc12)CCCCCC3 came out in this test?
Response: 0.0

Prompt: Hi, do you know how O=c1oc2c([nH]c3ccc4ccccc4c32)c2ccccc12 came out in this test?
Response: 0.0

Prompt: Hi, do you know how O=C(C[N+](=O)[O-])c1ccc(Cl)cc1 came out in this test?
Response: 0.0

Prompt: Hi, do you know how COc1ccc(C(=O)c2cc(OC)c(OC)c(OC)c2)cc1/C=C/C(=O)c1ccc(O)cc1 came out in this test?
Response: 0.0

Prompt: Hi, do you know how C=C1C(=O)O[C@H]2[C@H]1CC/C(Cn1cc(-c3ccsc3)nn1)=C\CC[C@@]1(C)O[C@@H]21 came out in this test?
Response: 1.0

Prompt: Hi, do you know how COC12CC(=O)C(C(C)=O)=C(O)C1(C)c1c(O)c(C)c(O)c(C(C)=O)c1O2 (configuration not stated) came out in this test?
Response: 0.0

Prompt: Hi, do you know how COc1ncc(-c2ccc3ncnc(Nc4cccc(Cl)c4)c3c2)cc1NS(=O)(=O)C1CC1 came out in this test?
Response: 0.0

Prompt: Hi, do you know how c1ccc2nc(-c3ccc4ccccc4n3)ccc2c1 came out in this test?
Response: 0.0

Prompt: Hi, do you know how Nc1c(C(=O)Nc2ccccc2)sc2nc3c(cc12)CCC3 came out in this test?
Response: 0.0

Prompt: Hi, do you know how N=C(N)c1ccc(-c2ccc(-c3ccc(Cl)cc3)o2)nc1 came out in this test?
Response: 1.0

Prompt: Hi, do you know how CSc1ccccc1C#C/C=C\C#Cc1ccccc1N1CCCC1=O came out in this test?
Response: 0.0

Prompt: Hi, do you know how CCNCc1ccncc1 came out in this test?
Response: 0.0

###

Tested on: SK-MEL-5 melanoma
assay_details: NCI-60 one-dose screen, 48 h
stated_conditions: 10 µM unless noted
This is part of a sample that, as a whole, favours compounds with a hit. Of some 83,000 tested, about 20% had one in any assay. The source made the active and inactive calls. The calls were made as follows: active = growth percent below 10; inactive = the rest.
Answer with one of the outcomes active, inactive

// known answers, use as guide
INSERT INTO assay_data (molecule, label_class) VALUES
  ('O=C1CCCCC=C1C[N+](=O)[O-]', 'inactive'),
  ('O=S=Nc1ccc([N+](=O)[O-])cc1', 'inactive'),
  ('COC(=O)C(CC(=O)c1ccc(-c2ccccc2)cc1)c1ccccc1 (stereo unspecified)', 'inactive'),
  ('O=C(NCCCN1CCN(CCCNC(=O)C2CCCCC2)CC1)C1CCCCC1', 'inactive'),
  ('COc1ccc(/C=C/C(=O)c2ccc(NC(=O)CN3CCN(c4cc5c(cc4F)c(=O)c(C(=O)O)cn5C4CC4)CC3)cc2)cc1', 'inactive'),
  ('CCN1C(=O)N(CC)C2C1NN=c1s/c(=C\c3ccccn3)c(=O)n12 (stereo unspecified)', 'active'),
  ('CCN(CC)CCC(=O)c1cccc2ccccc12', 'inactive'),
  ('CC/C=C\C/C=C\C[C@H]1C/C=C2/C(=O)C=C[C@H]2C/C=C\CCC(=O)O1', 'active');

Prompt: Hi, do you know how CC(C)(C)OC(=O)N[C@@H](Cc1ccccc1)C(=O)N(Cc1ccccc1)C1(C(=O)NCc2ccccc2)CCN(Cc2ccccc2)CC1 came out in this test?
Response: inactive

Prompt: Hi, do you know how CCC(c1ccc(OC)cc1)C(CC)c1ccc(OCC[N+](C)(C)C)cc1 (stereo unspecified) came out in this test?
Response: inactive

Prompt: Hi, do you know how Cn1c(C(N)=O)cc2c1-c1nc(NC3CCCCC3)ncc1CCC2 came out in this test?
Response: inactive

Prompt: Hi, do you know how COc1ccc(C(=O)/C=C/c2cc(C(=O)c3cc(OC)c(OC)c(OC)c3)ccc2OC)cc1 came out in this test?
Response: inactive

Prompt: Hi, do you know how Cc1ccc2c(c1)C(=O)C(c1c(-c3[nH]c(=O)c4ccc(C)cc4c3O)c(O)c3ccccc3c1O)=NC2=O came out in this test?
Response: inactive

Prompt: Hi, do you know how O=C(Nc1ccccc1)OCC1OCOC(COC(=O)Nc2ccccc2)C1OC(=O)Nc1ccccc1 (stereo unspecified) came out in this test?
Response: inactive

Prompt: Hi, do you know how CCCCC(N)(C(=O)O)C1CCCC1 (stereo unspecified) came out in this test?
Response: inactive

Prompt: Hi, do you know how COc1ccc(-c2nnc(COc3ccc(NS(=O)(=O)c4ccc(OC)cc4)cc3F)o2)cc1 came out in this test?
Response: inactive

Prompt: Hi, do you know how COc1ccc(/C=C(\C#N)c2ccc([N+](=O)[O-])cc2)c2ccccc12 came out in this test?
Response: inactive

Prompt: Hi, do you know how Cc1cc2c(c(=O)o1)C(c1ccc(OC(=O)N3CCOCC3)cc1)C(C#N)=C(N)O2 (stereo unspecified) came out in this test?
Response: inactive

Prompt: Hi, do you know how O=C(O)C(=Cc1c2ccccc2cc2ccccc12)C(=O)O came out in this test?
Response: inactive

Prompt: Hi, do you know how NC(=O)c1ccc2c(c1)OCO2 came out in this test?
Response: inactive

Prompt: Hi, do you know how COc1cc(Br)c(OC)cc1Br came out in this test?
Response: inactive
